System: aP2
protocol-summary: aP2 mRNA expression in adipocytes (real-time PCR)
Format: cell-based, human
conditions: Table 17; differentiating adipocytes; control = treatment with ISIS 342673
In the oligonucleotide strings, read from the 5' end, every base follows the letter of its sugar. An asterisk marks phosphorothioate; unmarked linkages are phosphodiester. Other units and linkages are bracketed, terminal groups are in braces. A string of capitals states the bases alone. e = 2'-O-(2-methoxyethyl) (MOE); [5mC] = 5-methylcytosine
outcome-measure: AP2 mRNA

Known AP2 mRNA results, listed for orientation:
328129 (antisense eA*eG*e[5mC]*e[5mC]*eT*e[5mC]*e[5mC]*eT*eT*e[5mC]*eT*eT*e[5mC]*eT*e[5mC]*eG*eT*eA*e[5mC]*eT*eA) [compound 328129]: 67.6 percentage of control
328123 (antisense eT*eT*eA*e[5mC]*eA*eG*eG*eT*eG*e[5mC]*eT*eG*e[5mC]*eA*eA*e[5mC]*eT*eG*eG*eA*eA) [compound 328123]: 106.7 percentage of control
328122 (antisense e[5mC]*eA*eA*eA*eA*e[5mC]*eA*eT*eA*eA*eA*eA*eA*eT*e[5mC]*e[5mC]*eT*eT*eG*e[5mC]*eA) [compound 328122]: 79.3 percentage of control
328139 (eT*eA*e[5mC]*eT*eT*eT*eT*e[5mC]*eA*eT*eT*e[5mC]*e[5mC]*e[5mC]*e[5mC]*eT*e[5mC]*eA*e[5mC]*e[5mC]*eA; anti-miR) [compound 328139]: 98.3 percentage of control

The substance 328134 (eA*eA*eT*eT*eG*eG*eA*e[5mC]*eA*eA*eA*eG*eT*eG*e[5mC]*e[5mC]*eT*eT*eT*e[5mC]*eA; anti-miR) [compound 328134] on aP2: AP2 mRNA was 80.1 percentage of control

* * *

System: differentiated adipocytes
protocol-summary: Hallmark genes and triglycerides in differentiated adipocytes
Assay type: cell-based, human
conditions: Table 28; differentiated adipocytes transfected day nine post-differentiation; 250 nM oligonucleotide
In the oligonucleotide strings, read from the 5' end, every base follows the letter of its sugar. An asterisk marks phosphorothioate; unmarked linkages are phosphodiester. Other units and linkages are bracketed, terminal groups are in braces. A string of capitals states the bases alone. e = 2'-O-(2-methoxyethyl) (MOE); [5mC] = 5-methylcytosine; d = 2'-deoxy (DNA)
outcome-measure: PPAR gamma

Illustrative cases are given below, each with its answer.
327890 (antisense eA*eG*e[5mC]*eA*e[5mC]*eA*eA*eA*e[5mC]*eT*eA*e[5mC]*eT*eA*e[5mC]*e[5mC]*eT*e[5mC]*eA) [compound 327890]: 1.05
340927 (antisense eT*eG*eA*eG*e[5mC]*dT*dA*d[5mC]*dA*dG*dT*dG*d[5mC]*dT*dT*e[5mC]*eA*eT*e[5mC]*eT*e[5mC]*eA) [compound 340927]: 1.21

For each entry beneath this line, provide reported PPAR gamma.
1. 327878 (antisense e[5mC]*eT*eA*eG*eT*eG*eG*eT*e[5mC]*e[5mC]*eT*eA*eA*eA*e[5mC]*eA*eT*eT*eT*e[5mC]*eA*e[5mC]) [compound 327878]
2. 327941 (antisense eA*eA*e[5mC]*e[5mC]*e[5mC]*eA*e[5mC]*e[5mC]*eG*eA*e[5mC]*eA*eG*e[5mC]*eA*eA*eT*eG*eA*eA*eT*eG*eT*eT) [compound 327941]
3. 327880 (antisense eA*e[5mC]*eA*eA*eA*eT*eT*e[5mC]*eG*eG*eT*eT*e[5mC]*eT*eA*e[5mC]*eA*eG*eG*eG*eT*eA) [compound 327880]
4. 327892 (antisense eA*e[5mC]*eT*eT*eT*e[5mC]*eG*eG*eT*eT*eA*eT*e[5mC]*eT*eA*eG*e[5mC]*eT*eT*eT*eA) [compound 327892]

[0.85, 1.66, 1.86, 1.01]

Hey, can you go through the list below and give me PPAR gamma for every item?
1. 327901 (antisense eT*eG*eA*eG*e[5mC]*eT*eA*e[5mC]*eA*eG*eT*eG*e[5mC]*eT*eT*e[5mC]*eA*eT*e[5mC]*eT*e[5mC]*eA) [compound 327901]
2. 327903 (antisense eA*eA*e[5mC]*eT*eA*eT*eA*e[5mC]*eA*eA*e[5mC]*e[5mC]*eT*eA*e[5mC]*eT*eA*e[5mC]*e[5mC]*eT*e[5mC]*eA) [compound 327903]
3. 327876 (antisense eA*eA*e[5mC]*eA*e[5mC]*eT*eG*eA*eT*eT*eT*e[5mC]*eA*eA*eA*eT*eG*eG*eT*eG*e[5mC]*eT*eA) [compound 327876]
4. 327888 (antisense eA*eA*eT*eG*e[5mC]*e[5mC]*e[5mC]*e[5mC]*eT*eA*eA*eA*eA*eA*eT*e[5mC]*e[5mC]*eT*eT*eA*eT) [compound 327888]
5. 327905 (antisense e[5mC]*eA*eG*eA*e[5mC]*eT*e[5mC]*e[5mC]*eG*eG*eT*eG*eG*eA*eA*eT*eG*eA*eA*eG*eG*eA) [compound 327905]
6. 327934 (antisense eG*eG*eT*eA*e[5mC]*eA*eA*eT*e[5mC]*eA*eA*e[5mC]*eG*eG*eT*e[5mC]*eG*eA*eT*eG*eG*eT) [compound 327934]

1: 1.34; 2: 0.91; 3: 1.28; 4: 1.69; 5: 1.31; 6: 1.54

I have 3 substances here; please give me PPAR gamma for each one.
1. 327925 (antisense eT*eA*eG*e[5mC]*eT*eG*eG*eT*eT*eG*eA*eA*eG*eG*eG*eG*eA*e[5mC]*e[5mC]*eA*eA) [compound 327925]
2. 327913 (antisense eA*eA*e[5mC]*e[5mC]*eG*eA*eT*eT*eT*e[5mC]*eA*eA*eA*eT*eG*eG*eT*eG*e[5mC]*eT*eA*eG) [compound 327913]
3. 327954 (antisense eA*e[5mC]*eA*eA*eA*eG*eT*eT*e[5mC]*eT*eG*eT*eG*eA*eT*eG*e[5mC]*eA*e[5mC]*eT*eG*eA) [compound 327954]

1.30
1.29
1.46

Each substance below has a reported value. Please supply its PPAR gamma.
1. 327922 (antisense eT*e[5mC]*eA*eG*eT*eT*eT*eT*eG*e[5mC]*eA*eT*eG*eG*eA*eT*eT*eT*eG*e[5mC]*eA*e[5mC]*eA) [compound 327922]
2. 327889 (antisense eG*eT*eG*eG*eT*eA*eA*eT*e[5mC]*e[5mC]*e[5mC]*eT*eG*eG*e[5mC]*eA*eA*eT*eG*eT*eG*eA*eT) [compound 327889]
3. 327919 (antisense eG*eA*eA*eA*e[5mC]*e[5mC]*e[5mC]*eA*eG*e[5mC]*eA*eG*eA*e[5mC]*eA*eA*eT*eG*eT*eA*eG*e[5mC]*eT) [compound 327919]
4. 327933 (antisense eA*eA*eG*eG*eG*eA*eT*eT*e[5mC]*e[5mC]*eT*eG*eG*eG*eA*eA*eA*eA*e[5mC]*eT*eG*eG*eA*e[5mC]) [compound 327933]
5. 338664 (antisense e[5mC]*eA*eG*eA*e[5mC]*eT*e[5mC]*e[5mC]*e[5mC]*eA*eA*e[5mC]*eT*eG*eA*e[5mC]*e[5mC]*eA*eG*eA) [compound 338664]
6. 328382 (e[5mC]*eA*eG*eA*e[5mC]*dT*d[5mC]*d[5mC]*d[5mC]*dA*dA*d[5mC]*dT*dG*dA*e[5mC]*e[5mC]*eA*eG*eA) [compound 328382]

[0.99, 1.63, 1.80, 1.60, 1.06, 0.97]
